// provenance: patent US6252079A

- System: HL-60 human promyelocytic leukemic cells
- Method Summary: Cytotoxicity, HL-60 cells
- Type: cell-based
- Experimental Context: HL-60 cells, cytotoxicity, read-out: IC50 (HL-60 human promyelocytic leukemic cells)
Readout Type: IC50

Assign IC50 to the following record: CC[C@@]1(O)C(=O)OCc2c1cc1n(c2=O)Cc2c-1nc1ccccc1c2[Si](C)(C)C [Compound 22d, (20S)-7-Trimethylsilylcamptothecin] 4 nM
